Target: Bromodomain-containing protein 4 (Homo sapiens)
Assay: Inhibition of BRD4 BD1 (unknown origin) at 50 uM using biotin labelled NeC: SGRG-K(Ac)-GG-K(Ac)-GLG-K(Ac)-GGA-K(Ac)-RHRKVGG-K as substrate preincubated for 15 mins followed by substrate addition measured after 30 mins by alpha screen assay relative to control

COMPOUND	UNIT TEXT	VALUE PREFIX	inhibition
CCOC(=O)C1CCCN(Cc2ccc(O)c3ncccc23)C1 (stereo not drawn)	%	=	97.8
O=C(C[n+]1cccc2cccc(O)c21)c1ccc(Cl)cc1	%	=	-0
Cc1cc(C)c2ccc(NN)nc2c1O	%	=	88
Oc1c(Br)cc(/C=C/c2ccc3cccc(O)c3n2)cc1Br	%	=	-0
Cc1ccc(C(=O)C[n+]2cccc3cccc(O)c32)cc1	%	=	-0
O=S(=O)(O)c1ccc2cccc(O)c2n1	%	=	47.4
Oc1cccc2ccc(/C=C/c3ccc(-c4cccc(Br)c4)o3)nc12	%	<	7.8
O=C(C[n+]1cccc2cccc(O)c21)c1ccccc1	%	=	-0
C=CC[n+]1cccc2cccc(O)c21	%	=	-0
CCOc1c(Br)cc(Br)cc1/C=C/c1ccc2cccc(O)c2n1	%	=	-0
Oc1c(Br)cc(Br)cc1/C=C/c1ccc2cccc(O)c2n1	%	=	-0
Cc1cc(O)c2cccc(O)c2n1	%	=	-0
